Target: Gamma-secretase
Assay: Inhibition of gamma secretase-mediated amyloid beta40 production in human SH-SY5Y cells overexpressing beta-APP C-terminal SPA4CT by electrochemiluminescent analysis
Format: cell-based
pIC50: −log10 of the molar value.
recorded_endpoint: pIC50

(I) COc1cc(-c2cn(CC(=O)Nc3cccc4ccccc34)nn2)ccc1-n1cnc(C)c1
(II) COc1cc(-c2cn([C@H]3C[C@@H](C(F)(F)F)CN(CC(F)(F)F)C3=O)nn2)ccc1-n1cnc(C)c1
Endpoint returns whichever of I and II has the numerically higher pIC50. Mark your answer with the label of the selected entry.
II

(A) COc1cc(-c2cn(C3CC([Si](C)(C)C)CCNC3=O)nn2)ccc1-n1cnc(C)c1 (racemic)
(B) COc1cc(-c2cn(CC(=O)N(Cc3ccccc3)Cc3ccccc3)nn2)ccc1-n1cnc(C)c1
(C) COc1cc(-c2cn(C3CC(C4CCCCC4)CCNC3=O)nn2)ccc1-n1cnc(C)c1 (racemic)
Please list these in order of increasing pIC50. Thank you! Please reply with the labels ordered as requested. Many thanks.
B, A, C
(B: 5.35, A: 5.91, C: 6.18)
